# measured_on: CrufCSP1
# method: Fluorescence competitive binding assay with 1-NPN as probe
# Design: species or system Cotesia ruficrus
measure: pKi
// pKi here means minus log10 of the molar concentration (mol/L)

// worked examples, pKi included
> print(dat)
                        compound  endpoint.result
1                    O=Cc1ccccc1             4.82
2                 Cc1ccc(C=O)cc1             4.40
3  CCC/C=C/C=O [trans-2-Hexenal]             4.84

From here, focus on the item given below.
The compound CCCCCCCCCCCCCCC=O on CrufCSP1: pKi was 4.41

* * *

# measured_on: CrufCSP1
# method: Fluorescence competitive binding assay with 1-NPN as probe
# Design: species or system Cotesia ruficrus
# settings: listed as trans-2-hexenal
measure: Ki

Record CCC/C=C/C=O [trans-2-Hexenal] . Reported Ki: < 20 µM

* * *

# measured_on: CrufCSP1
# method: Fluorescence competitive binding assay with 1-NPN as probe
# settings: recombinant CrufCSP1 2 μM, 1-NPN 2 μM, ligand 0 to 30 μM, tris-HCl pH 7.4
measure: pIC50
// pIC50: -log10(molar conc.)

Sample answers from the record:
> print(dat)
            compound  endpoint.result
1           CCCCCCCO             4.50
2           CCCCCC=O             4.66
3  CCCCCCCCCCCCCCC=O             4.35

Let's switch to this compound now.
Sample CCC/C=C/C=O [trans-2-Hexenal] , system: CrufCSP1. Its pIC50 is 4.78

* * *

# measured_on: CrufCSP1
# method: Fluorescence competitive binding assay with 1-NPN as probe
# Design: species or system Cotesia ruficrus
# settings: calculated from IC50: Ki=[IC50]/(1+[1-NPN]/K1-NPN); CrufCSP1 2 μM, 1-NPN 2 μM; listed as octanal
pKi: −log10 of the molar value.
measure: pKi

Value (pKi, CrufCSP1) for record CCCCCCCC=O = > 4.70

* * *

# measured_on: CrufCSP1
# method: Fluorescence competitive binding assay with 1-NPN as probe
# Design: species or system Cotesia ruficrus
# settings: calculated from IC50: Ki=[IC50]/(1+[1-NPN]/K1-NPN); CrufCSP1 2 μM, 1-NPN 2 μM
measure: pKi
Expect pKi as a plain number equal to -log10 of the molar concentration.

> print(dat)
                                 compound  endpoint.result
1                            CCCCCCCCCC=O             4.66
2                              CCCCCCCC=O             4.82
3  C=CC(C)(O)CCC=C(C)C (centres unmarked)             4.70
4                                CCCCCCCO             4.56

Kindly review the next compound as well.
The recorded pKi for entry CC(=O)c1cc(C)ccc1O [2-Hydroxy-5-methylacetophenone] equals 4.70

* * *

# measured_on: CrufCSP1
# method: Fluorescence competitive binding assay with 1-NPN as probe
# settings: recombinant CrufCSP1 2 μM, 1-NPN 2 μM, ligand 0 to 30 μM, tris-HCl pH 7.4
pIC50: −log10 of the molar value.
measure: pIC50

Examples from the recorded data:
> print(dat)
                                   molecule  endpoint.result
1   OCCCCCCCCCCCCCCO [1,14-Tetradecanediol]           < 4.30
2  CCCCC(C)O (stereo not drawn) [2-Hexanol]           < 4.30

Okay, next one:
Field pIC50 (entry CCCCCCCCC=O [Nonanal] ) reads < 4.30

* * *

# measured_on: CrufCSP1
# method: Fluorescence competitive binding assay with 1-NPN as probe
# Design: species or system Cotesia ruficrus
# settings: calculated from IC50: Ki=[IC50]/(1+[1-NPN]/K1-NPN); CrufCSP1 2 μM, 1-NPN 2 μM
Entries annotated with measured Ki

> print(dat)
      sample.smiles  measure  endpoint.result
1   CCCCCCCCCCCCCCO       Ki          > 50 µM
2  OCCCCCCCCCCCCCCO       Ki          > 50 µM

Next compound, Ki to be filled in.
Ki recorded for this compound, CCCCCCC=O , is > 50 µM
